Target: D816V Kit (Homo sapiens (Human), UniProt P10721, D816V)
Sequence (P10721 26-976 D816V): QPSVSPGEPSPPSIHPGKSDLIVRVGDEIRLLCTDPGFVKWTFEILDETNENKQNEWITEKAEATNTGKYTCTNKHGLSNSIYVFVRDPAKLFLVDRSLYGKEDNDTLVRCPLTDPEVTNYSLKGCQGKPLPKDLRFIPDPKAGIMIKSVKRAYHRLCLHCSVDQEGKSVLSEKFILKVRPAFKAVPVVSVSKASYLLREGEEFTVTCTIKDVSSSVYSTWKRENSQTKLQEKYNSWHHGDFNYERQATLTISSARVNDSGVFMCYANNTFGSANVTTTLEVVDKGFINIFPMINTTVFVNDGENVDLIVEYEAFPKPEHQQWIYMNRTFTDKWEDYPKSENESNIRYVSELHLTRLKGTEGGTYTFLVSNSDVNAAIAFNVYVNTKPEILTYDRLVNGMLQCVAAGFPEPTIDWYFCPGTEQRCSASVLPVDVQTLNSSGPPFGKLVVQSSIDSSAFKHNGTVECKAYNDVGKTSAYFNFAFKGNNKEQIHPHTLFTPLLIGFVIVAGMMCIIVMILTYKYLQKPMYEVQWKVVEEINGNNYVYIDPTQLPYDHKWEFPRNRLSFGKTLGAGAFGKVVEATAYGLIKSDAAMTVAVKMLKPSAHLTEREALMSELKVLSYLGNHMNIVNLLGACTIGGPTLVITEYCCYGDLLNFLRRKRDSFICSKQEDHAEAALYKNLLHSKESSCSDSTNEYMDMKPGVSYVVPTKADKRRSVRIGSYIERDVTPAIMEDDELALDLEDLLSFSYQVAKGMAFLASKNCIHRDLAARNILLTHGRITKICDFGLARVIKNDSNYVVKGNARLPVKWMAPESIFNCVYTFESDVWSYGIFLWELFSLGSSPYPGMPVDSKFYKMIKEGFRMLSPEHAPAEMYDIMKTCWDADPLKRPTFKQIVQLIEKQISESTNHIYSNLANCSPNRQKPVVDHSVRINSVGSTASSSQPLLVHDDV
Experiment: Kit D816V assay at Km (Caliper electrophoretic mobility shift)
Type: biochemical
Conditions: D816V Kit versus wild-type Kit, enzyme assays at Km
MEASUREMENT_LABEL: times more potent against the D816V mutant than against the wild-type Kit

[
  {
    "INPUT_SMILES": "c1ccc(Cc2cnc(N3CCN(c4ncnc5c4CN(CC4CCNCC4)C5)CC3)nc2)cc1",
    "ASSAYED_SYSTEM": "D816V Kit (Homo sapiens (Human), UniProt P10721, D816V)",
    "RESULT": "less than 5 times"
  },
  {
    "INPUT_SMILES": "COc1cc2ncnc(N3CCN(c4ncc(Cc5ccccc5)cn4)C(=O)C3)c2cc1OC",
    "ASSAYED_SYSTEM": "D816V Kit (Homo sapiens (Human), UniProt P10721, D816V)",
    "RESULT": "less than 5 times"
  },
  {
    "INPUT_SMILES": "c1ccc(Cc2cnc(N3CCN(c4ncnc5[nH]cnc45)CC3)nc2)cc1",
    "ASSAYED_SYSTEM": "D816V Kit (Homo sapiens (Human), UniProt P10721, D816V)",
    "RESULT": "at least 100 times"
  },
  {
    "INPUT_SMILES": "COc1cc2ncnc(N3CCN(c4ncc(Cc5ccccc5)cn4)CC3)c2cc1C(N)=O",
    "ASSAYED_SYSTEM": "D816V Kit (Homo sapiens (Human), UniProt P10721, D816V)",
    "RESULT": "at least 100 times"
  },
  {
    "INPUT_SMILES": "COc1cc2ncnc(N3CCN(c4ncc(OCC5CCCC5)cn4)CC3)c2cc1OC",
    "ASSAYED_SYSTEM": "D816V Kit (Homo sapiens (Human), UniProt P10721, D816V)",
    "RESULT": "at least 100 times"
  },
  {
    "INPUT_SMILES": "COc1cc2ncnc(N3CCN(c4ncc(-c5ccc(C#N)cc5)cn4)CC3)c2cc1OC",
    "ASSAYED_SYSTEM": "D816V Kit (Homo sapiens (Human), UniProt P10721, D816V)",
    "RESULT": "less than 5 times"
  },
  {
    "INPUT_SMILES": "COc1cc2ncnc(N3CCN(c4ncc(Br)c(OC)n4)CC3)c2cc1OC",
    "ASSAYED_SYSTEM": "D816V Kit (Homo sapiens (Human), UniProt P10721, D816V)",
    "RESULT": "less than 5 times"
  }
]

Now turn to the next compound.
Dear colleague, I am looking for the recorded times more potent against the D816V mutant than against the wild-type Kit of the following compound: `COc1cc2ncnc(N3CCN(c4ncc(OCc5ccc(C#N)cc5)cn4)CC3)c2cc1OC`
at least 100 times

###

Biological target: D816V Kit (Homo sapiens (Human), UniProt P10721, D816V)
Experiment: Kit D816V assay at Km (Caliper electrophoretic mobility shift)
Assay type: biochemical
Conditions: D816V Kit 0.5 nM, 15 uM ATP (Km), 1 uM Srctide, 25 C, 90 minutes; read-out: INH-KITD816V ENZ-KM IC50 (nM) (Num)
MEASUREMENT_LABEL: IC50

Dear colleague, I am looking for the recorded IC50 of the following molecule: `c1ccc(Cc2cnc(N3CCN(c4ncnc5[nH]cnc45)CC3)nc2)cc1`
10 to 100 nM

Dear colleague, I am looking for the recorded IC50 of the following molecule: `COc1cc2ncnc(N3CCN(c4ncc(NCc5ccccc5C)cn4)CC3)c2cc1OC`
10 to 100 nM

Dear colleague, I am looking for the recorded IC50 of the following molecule: `COc1cc2c(N3CCN(c4ncc(Br)cn4)CC3)ncnc2cc1OCCCN1CCCC1`
10 to 100 nM

Dear colleague, I am looking for the recorded IC50 of the following molecule: `COc1cc2ncnc(N3CCN(c4ncc(OCc5cccc(C)c5)cn4)CC3)c2cc1OC`
10 to 100 nM

Dear colleague, I am looking for the recorded IC50 of the following molecule: COc1cc2ncnc(N3CCN(c4ncc(OCc5ccccc5)cn4)C(C)C3)c2cc1OC (stereo not shown)
10 to 100 nM

Dear colleague, I am looking for the recorded IC50 of the following molecule: `COc1cc2ncnc(N3CCN(c4ncc(Cc5ccccc5)cn4)C[C@H]3C)c2cc1OC`
> 100 nM

Dear colleague, I am looking for the recorded IC50 of the following molecule: `COc1cc2ncnc(N3CCN(c4ncc(Cc5ccccc5)cn4)CC3)c2cc1OCC1CN(C)C1`
< 1 nM

Dear colleague, I am looking for the recorded IC50 of the following molecule: `COc1ccc2ncnc(N3CCN(c4ncc(Cc5ccccc5)cn4)CC3)c2c1`
10 to 100 nM

Dear colleague, I am looking for the recorded IC50 of the following molecule: `COc1cc2ncnc(N3CCN(c4ncc(Cc5ccccc5)cn4)CC3)c2cc1OCCN1CCCC1=O`
< 1 nM

Dear colleague, I am looking for the recorded IC50 of the following molecule: `COc1cc2ncnc(N3CCN(c4ncc(Nc5ccc(Cl)cc5)cn4)CC3)c2cc1OC`
1.01 to 10 nM

Dear colleague, I am looking for the recorded IC50 of the following molecule: `COc1cc2ncnc(N3CCN(c4ncc(Sc5ccc(F)cc5)cn4)CC3)c2cc1OCC1CCN(C)CC1`
1.01 to 10 nM

Dear colleague, I am looking for the recorded IC50 of the following molecule: COc1cc2ncnc(N3CCN(c4ncc(Cc5ccccc5)cn4)CC3)c2cc1OCC1CCN(C)C1 (stereo not shown)
< 1 nM

Dear colleague, I am looking for the recorded IC50 of the following molecule: `COc1cc2ncnc(N3CCN(c4ncc(Nc5ccncc5)cn4)CC3)c2cc1OC`
> 100 nM

Dear colleague, I am looking for the recorded IC50 of the following molecule: `COc1cc2c(N3CCN(c4ncc(Cc5ccccc5)cn4)CC3)ncnc2cc1OCCN1CCCC1=O`
< 1 nM

Dear colleague, I am looking for the recorded IC50 of the following molecule: COc1cc2ncnc(N3CCN(c4ncc(Cc5ccccc5)c(=O)[nH]4)CC3)c2cc1OCC1CN(C)CCO1 (stereo not shown)
1.01 to 10 nM

Dear colleague, I am looking for the recorded IC50 of the following molecule: `COc1cc2ncnc(N3CCN(c4ncc(N(C)Cc5ccccc5)cn4)CC3)c2cc1OC`
1.01 to 10 nM

Dear colleague, I am looking for the recorded IC50 of the following molecule: `COc1cc2ncnc(N3CCN(c4ncc(C(=O)Nc5ccccc5)cn4)CC3)c2cc1OC`
10 to 100 nM

Dear colleague, I am looking for the recorded IC50 of the following molecule: `COc1cc2ncnc(N3CCN(c4ncc(N5CCCc6ccccc65)cn4)CC3)c2cc1OC`
10 to 100 nM

Dear colleague, I am looking for the recorded IC50 of the following molecule: `COc1cc2c(N3CCN(c4ncc(Cc5ccccc5)cn4)CC3)ncnc2cc1OC(F)F`
10 to 100 nM

Dear colleague, I am looking for the recorded IC50 of the following molecule: `CCOc1cc2ncnc(N3CCN(c4ncc(Cc5ccccc5)c(N)n4)CC3)c2cc1OCC1CCN(C)CC1`
< 1 nM

Dear colleague, I am looking for the recorded IC50 of the following molecule: `COc1cc2c(N3CCN(c4ncc(Cc5ccccc5)cn4)CC3)ncnc2cc1OCCCN1CCN(C)CC1`
< 1 nM

Dear colleague, I am looking for the recorded IC50 of the following molecule: `CN1CCC(COc2ccc3ncnc(N4CCN(c5ncc(Cc6ccccc6)c(=O)[nH]5)CC4)c3c2)CC1`
1.01 to 10 nM

Dear colleague, I am looking for the recorded IC50 of the following molecule: `COc1cc2ncnc(N3CCN(c4ncc(Nc5ccc(C(C)(C)C)cc5)cn4)CC3)c2cc1OC`
> 100 nM

Dear colleague, I am looking for the recorded IC50 of the following molecule: `COc1cc2ncnc(N3CCN(c4ncc(OCc5ccsc5)cn4)CC3)c2cc1OC`
10 to 100 nM

Dear colleague, I am looking for the recorded IC50 of the following molecule: `c1ccc(Cc2cnc(N3CCN(c4ncnc5c4CNC5)CC3)nc2)cc1`
> 100 nM

Dear colleague, I am looking for the recorded IC50 of the following molecule: `COc1cc2ncnc(N3CCN(c4ncc(OCc5ccccc5)cn4)C[C@H]3C)c2cc1OC`
> 100 nM

Dear colleague, I am looking for the recorded IC50 of the following molecule: `COc1cc2ncnc(N3CCN(c4ncc(OCC5CC5)cn4)CC3)c2cc1OC`
> 100 nM

Dear colleague, I am looking for the recorded IC50 of the following molecule: `COc1cc2ncnc(N3CCN(c4ncc(Cc5ccccc5C)cn4)CC3)c2cc1OC`
10 to 100 nM

Dear colleague, I am looking for the recorded IC50 of the following molecule: `CCOc1cc2ncnc(N3CCN(c4ncc(Cc5ccccc5)cn4)CC3)c2cc1OCC1CCN(C)CC1`
< 1 nM

Dear colleague, I am looking for the recorded IC50 of the following molecule: `COc1cc2ncnc(N3CCN(c4ncc(OCc5cc(Cl)cc(Cl)c5)cn4)CC3)c2cc1OC`
> 100 nM

Dear colleague, I am looking for the recorded IC50 of the following molecule: `COc1cc2ncnc(N3CCN(c4ncc(Cc5ccccc5)cn4)CC3)c2cc1OCC1(F)CCN(C)CC1`
< 1 nM
